Item-by-item account of inhibition in vivo at 50 µmol/kg
# Tested on: Rattus norvegicus
# testSummary: Antiinflammatory activity in albino Wistar rat assessed as inhibition of carrageenan-induced hind paw edema at 0.05 mmol/kg, po administered 1 hr prior to carrageenan challenge measured after 5 hrs by plethysmometric analysis relative to control
# Assay type: functional
experimentalReadout: inhibition in vivo at 50 µmol/kg

>>> df
                            molecularstring         testsystem  result
0  Cc1ccc2c(c1)oc(=O)n2Cc1cn(-c2ccc(Cl)cc2)nn1  Rattus norvegicus   76.7%
1  O=c1oc2ccc(Cl)cc2n1Cc1cn(-c2ccc(Cl)cc2)nn1  Rattus norvegicus   65.1%
2  Cc1ccc2oc(=O)n(Cc3cn(-c4ccc(Br)cc4)nn3)c2c1  Rattus norvegicus   74.8%
